# Target Desc: Estrogen receptor beta (Homo sapiens)
# Assay Info: Binding affinity to ERbeta (unknown origin) by competitive fluorometric receptor binding assay relative to estradiol
Reported Endpoint: relative binding affinity (RBA)

Sample records with relative binding affinity (RBA):
CCCCCCOc1ccc(N(CC(F)(F)F)S(=O)(=O)[C@H]2C[C@H]3O[C@@H]2C(c2ccc(O)cc2)=C3c2ccc(O)cc2)cc1 (relative stereo); 0.86
CCCCCCCCCCOc1ccc(C2=C(c3ccc(O)cc3)[C@H]3O[C@@H]2C[C@@H]3S(=O)(=O)N(CC(F)(F)F)c2ccc(OC)cc2)cc1 (relative stereo); 0.02
CCCCCCCCCCOc1ccc(C2=C(c3ccc(O)cc3)[C@H]3C[C@H](S(=O)(=O)N(CC(F)(F)F)c4ccc(Cl)cc4)[C@@H]2O3)cc1 (relative stereo); 0.11
CCCCCCOc1ccc(C2=C(c3ccc(O)cc3)[C@H]3O[C@@H]2C[C@@H]3S(=O)(=O)N(CC(F)(F)F)c2ccc(Cl)cc2)cc1 (relative stereo); 0.02

[I] CCCCCCCCOc1ccc(C2=C(c3ccc(O)cc3)[C@H]3C[C@H](S(=O)(=O)N(CC(F)(F)F)c4ccc(Cl)cc4)[C@@H]2O3)cc1 (relative stereo)
[II] CCCCCCOc1ccc(C2=C(c3ccc(O)cc3)[C@H]3O[C@@H]2C[C@@H]3S(=O)(=O)N(CC)c2ccccc2)cc1 (relative stereo)
Query :: Between I and II , whose recorded relative binding affinity (RBA) is greater? Response format: the label of the selected entry.
Result :: II
(II: 0.53, I: 0.04)

---

# Assay Info: Half life in Sprague-Dawley rat at 3 mg/kg, iv administered via foot dorsal vein by LC-MS/MS analysis
# Type: ADME, organism-based
# Assay Conditions: in vivo
Reported Endpoint: half-life (min)
Write the answer as a number in min, unit excluded.

Query :: // returns reported half-life for input CCCCCCOc1ccc(N(CC(F)(F)F)S(=O)(=O)[C@H]2C[C@H]3O[C@@H]2C(c2ccc(O)cc2)=C3c2ccc(O)cc2)cc1 (relative stereo)
Result :: 132

---

# Target Desc: Estrogen receptor beta (Homo sapiens) (UniProt Q92731)
# Sequence (Q92731 whole entry): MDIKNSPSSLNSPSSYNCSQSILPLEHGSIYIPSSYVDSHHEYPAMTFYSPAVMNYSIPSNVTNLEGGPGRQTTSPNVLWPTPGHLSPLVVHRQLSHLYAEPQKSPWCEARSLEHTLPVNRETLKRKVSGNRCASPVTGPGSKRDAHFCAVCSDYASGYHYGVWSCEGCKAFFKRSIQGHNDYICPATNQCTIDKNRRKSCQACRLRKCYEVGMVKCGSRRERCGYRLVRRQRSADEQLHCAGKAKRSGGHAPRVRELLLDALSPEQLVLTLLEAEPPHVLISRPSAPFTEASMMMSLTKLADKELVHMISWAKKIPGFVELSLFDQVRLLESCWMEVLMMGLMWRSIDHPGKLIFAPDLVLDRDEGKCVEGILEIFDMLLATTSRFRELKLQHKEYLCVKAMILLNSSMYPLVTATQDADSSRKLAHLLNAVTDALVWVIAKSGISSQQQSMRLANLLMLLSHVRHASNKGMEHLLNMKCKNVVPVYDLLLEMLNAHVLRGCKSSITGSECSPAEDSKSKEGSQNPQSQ
# Assay Info: Binding affinity to ERbeta (unknown origin) by competitive fluorometric receptor binding assay relative to estradiol
Reported Endpoint: relative binding affinity (RBA)

CCCCOc1ccc(C2=C(c3ccc(O)cc3)[C@H]3C[C@H](S(=O)(=O)N(CC(F)(F)F)c4ccc(OC)cc4)[C@@H]2O3)cc1 (relative stereo); 0.85
COc1ccc(N(CC(F)(F)F)S(=O)(=O)[C@H]2C[C@H]3O[C@@H]2C(c2ccc(O)cc2)=C3c2ccc(O)cc2)cc1 (relative stereo); 0.07

[1] CCCCOc1ccc(C2=C(c3ccc(O)cc3)[C@H]3C[C@H](S(=O)(=O)N(CC(F)(F)F)c4ccc(Cl)cc4)[C@@H]2O3)cc1 (relative stereo)
[2] CCCCCCOc1ccc(N(C)S(=O)(=O)[C@H]2C[C@H]3O[C@@H]2C(c2ccc(O)cc2)=C3c2ccc(O)cc2)cc1 (relative stereo)
[3] CCCCCCCCOc1ccc(C2=C(c3ccc(O)cc3)[C@H]3C[C@H](S(=O)(=O)N(CC)c4ccccc4)[C@@H]2O3)cc1 (racemic)
[4] CCCCCCCCCCOc1ccc(C2=C(c3ccc(O)cc3)[C@H]3O[C@@H]2C[C@@H]3S(=O)(=O)N(CC(F)(F)F)c2ccc(Cl)cc2)cc1 (relative stereo)
Query :: Descending sort on relative binding affinity (RBA) required. The response must list the labels following the requested ordering.
Result :: 2, 1, 3, 4
(2: 0.12, 1: 0.05, 3: 0.02, 4: 0.01)
